Every entry's value here was drawn from ChEMBL document CHEMBL1201862.

# Tested on: NCI-H460
# assay-notes: NCI tumour cell line growth inhibition, 48 h
Activity calls are given as the source filed them. No stated cut-off is given here; in the data, active = GI50 up to about 1.1 µM and inactive = higher.
Just give me one of these, please: active, inactive

Worked examples follow.
>>> class_name("O=C1CCCCC1C(O)(C(F)(F)F)C(F)(F)Cl (configuration not stated)")
"inactive"
>>> class_name("CCOC(=O)N1CCN(c2c(C)nc(C)nc2O)CC1")
"inactive"
>>> class_name("CN(c1ccccc1Cl)S(=O)(=O)c1ccccc1[N+](=O)[O-]")
"inactive"
>>> class_name("CN1CCc2c1nc(-c1cccnc1)c1c2N(C)CC1")
"inactive"
>>> class_name("COc1ccc2[nH]c3c(C)c4ccnc(NCCCN(C)CCCNc5ccc6nnn7c8ccccc8c(=O)c5c67)c4c(C)c3c2c1")
"active"

Could you check what this test reported for CCCCC1(OC(=O)CCC(=O)O)CCC2(CCC(C)C(C/C=C(C)/C=C/C(O)C(C)/C=C/C(=O)O)O2)OC1CC/C(C)=C/C(=O)O (configuration not stated) ? inactive

Tell me the assay call for `N#Cc1c(O)cc(=O)n2c1[nH]c1ccccc12` please. inactive

What did this assay record as the result for CC(C)C1CCC(=O)CC1CCCCC1CC(=O)CC1O[Si](C)(C)C(C)(C)C (configuration not stated) ? inactive

What is the recorded call for this compound in the test? Cc1nc2ccc(NC3OCC(O)C(O)C3O)cc2c(=O)n1-c1ccccc1 (configuration not stated) inactive

// outcome(item) with item = CNC(=O)SCC(NC(=O)CCC(N)C(=O)O)C(=O)NCC(=O)O (configuration not stated) inactive

So what was the verdict on `NC(=O)NNc1nc2ccccc2c(=O)n1NC(=O)C(=O)Nc1ccc(Cl)cc1Cl` in this test? inactive

Recorded call for CC(C)C1OC(=O)/C=C/C=C/C=C/C=C/C=C/CC(O)C(C)C(O)CC(O)CC(O)CC(O)CC(O)CC(O)CC(O)/C=C/C1C (configuration not stated) ? inactive
